Target: UniProt:P07550
Experiment: Agonist activity at human beta2 adrenergic receptor expressed in cells by cAMP accumulation assay
Type: functional, cell-based
pEC50: −log10 of the molar value.
result-type: pEC50

[a] CCOc1ccc(Nc2ccc(CCNC[C@H](O)c3ccc(O)c4[nH]c(=O)ccc34)cc2)cc1
[b] COc1ccc(Nc2ccc(CCNC[C@H](O)c3ccc(O)c4[nH]c(=O)ccc34)cc2)cc1-c1ccc(CN)cc1
Q. Hi, I'm comparing two records. Which one has the lower pEC50, a or b ? Record your answer as the label of the chosen record.
A. a

* * *

Test: Clearance in dog
Type: ADME, organism-based, Canis lupus familiaris
Settings: in vivo
result-type: clearance (mL/min/kg)
Expressed in mL/min/kg, but write only the number.

Given item "CC(C)(N)COc1ccc(Nc2ccc(CCNC[C@H](O)c3ccc(O)c4[nH]c(=O)ccc34)cc2)cc1" , the value recorded as its clearance is 40

* * *

Assay: Oral bioavailability in dog
Format: ADME, organism-based, Canis lupus familiaris
Conditions: in vivo
result-type: bioavailability (%)
Expressed in %, but write only the number.

Given item "CC(C)(N)COc1ccc(Nc2ccc(CCNC[C@H](O)c3ccc(O)c4[nH]c(=O)ccc34)cc2)cc1" , the value recorded as its bioavailability is 5

* * *

Target: Beta-2 adrenergic receptor (Homo sapiens, UniProt P07550)
Sequence (P07550 whole entry): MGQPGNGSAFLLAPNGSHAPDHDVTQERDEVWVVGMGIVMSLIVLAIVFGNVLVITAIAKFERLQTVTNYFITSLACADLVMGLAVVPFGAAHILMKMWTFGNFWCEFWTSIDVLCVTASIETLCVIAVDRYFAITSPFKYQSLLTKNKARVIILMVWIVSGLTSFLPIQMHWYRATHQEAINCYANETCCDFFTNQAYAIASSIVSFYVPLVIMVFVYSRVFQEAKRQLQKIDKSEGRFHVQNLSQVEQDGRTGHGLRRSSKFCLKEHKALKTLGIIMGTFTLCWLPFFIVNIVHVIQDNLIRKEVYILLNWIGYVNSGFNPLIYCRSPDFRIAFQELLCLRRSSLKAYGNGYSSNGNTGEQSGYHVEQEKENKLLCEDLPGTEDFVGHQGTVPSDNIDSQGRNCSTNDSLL
Assay: Agonist activity at human beta2 adrenergic receptor in human BEAS-2B cells by cAMP accumulation assay
Assay type: functional, cell-based
pEC50: −log10 of the molar value.
result-type: pEC50

See these solved cases before continuing.
1. CS(=O)(=O)N1CCN(CCOc2ccc(Nc3ccc(CCNC[C@H](O)c4ccc(O)c5[nH]c(=O)ccc45)cc3)cc2)CC1 :: 8.20
2. NCCOc1ccc(Nc2ccc(CCNC[C@H](O)c3ccc(O)c4[nH]c(=O)ccc34)cc2)cc1 :: 9.30
3. COc1ccc(Nc2ccc(CCNC[C@H](O)c3ccc(O)c4[nH]c(=O)ccc34)cc2)cc1-c1cccc(CN)c1 :: 9.50
4. CC(C)(C)OC(=O)NCCOc1ccc(Nc2ccc(CCNC[C@H](O)c3ccc(O)c4[nH]c(=O)ccc34)cc2)cc1 :: 8.60
5. O=c1ccc2c([C@@H](O)CNCCc3ccc(Nc4ccc(OCCN5CCOCC5)cc4)cc3)ccc(O)c2[nH]1 :: 8.50

[P] COc1ccc(Nc2ccc(CCNC[C@H](O)c3ccc(O)c4[nH]c(=O)ccc34)cc2)cc1-c1ccccc1CN
[Q] CC(C)(N)COc1ccc(Nc2ccc(CCNC[C@H](O)c3ccc(O)c(NC=O)c3)cc2)cc1
[R] COc1ccc(Nc2ccc(CCNC[C@H](O)c3ccc(O)c4[nH]c(=O)ccc34)cc2)cc1-c1ccc(CN)cc1
Q. Please rank these compounds by pEC50 in descending order. Would you mind listing the labels in the order asked for?
A. R, P, Q
(R: 9.30, P: 9.10, Q: 8.50)

[I] NCCCOc1ccc(Nc2ccc(CCNC[C@H](O)c3ccc(O)c4[nH]c(=O)ccc34)cc2)cc1
[II] O=C(NCCOc1ccc(Nc2ccc(CCNC[C@H](O)c3ccc(O)c4[nH]c(=O)ccc34)cc2)cc1)c1ccccc1
Q. Hi, I'm comparing two records. Which one has the lower pEC50, I or II ? Record your answer as the label of the chosen record.
A. II
(II: 8.80, I: 9.20)

[a] NCCOCCOc1ccc(Nc2ccc(CCNC[C@H](O)c3ccc(O)c4[nH]c(=O)ccc34)cc2)cc1
[b] CCOc1ccc(Nc2ccc(CCNC[C@H](O)c3ccc(O)c4[nH]c(=O)ccc34)cc2)cc1
Q. Hi, I'm comparing two records. Which one has the lower pEC50, a or b ? Record your answer as the label of the chosen record.
A. b
